- ASSAYED_TARGET: calcium channel (3H-nitrendipine binding, heart membranes) (Oryctolagus cuniculus)
- Construct: from tissue; host or cells: rabbit heart membrane preparation
- Sequence (P15381 whole entry, other chains not shown): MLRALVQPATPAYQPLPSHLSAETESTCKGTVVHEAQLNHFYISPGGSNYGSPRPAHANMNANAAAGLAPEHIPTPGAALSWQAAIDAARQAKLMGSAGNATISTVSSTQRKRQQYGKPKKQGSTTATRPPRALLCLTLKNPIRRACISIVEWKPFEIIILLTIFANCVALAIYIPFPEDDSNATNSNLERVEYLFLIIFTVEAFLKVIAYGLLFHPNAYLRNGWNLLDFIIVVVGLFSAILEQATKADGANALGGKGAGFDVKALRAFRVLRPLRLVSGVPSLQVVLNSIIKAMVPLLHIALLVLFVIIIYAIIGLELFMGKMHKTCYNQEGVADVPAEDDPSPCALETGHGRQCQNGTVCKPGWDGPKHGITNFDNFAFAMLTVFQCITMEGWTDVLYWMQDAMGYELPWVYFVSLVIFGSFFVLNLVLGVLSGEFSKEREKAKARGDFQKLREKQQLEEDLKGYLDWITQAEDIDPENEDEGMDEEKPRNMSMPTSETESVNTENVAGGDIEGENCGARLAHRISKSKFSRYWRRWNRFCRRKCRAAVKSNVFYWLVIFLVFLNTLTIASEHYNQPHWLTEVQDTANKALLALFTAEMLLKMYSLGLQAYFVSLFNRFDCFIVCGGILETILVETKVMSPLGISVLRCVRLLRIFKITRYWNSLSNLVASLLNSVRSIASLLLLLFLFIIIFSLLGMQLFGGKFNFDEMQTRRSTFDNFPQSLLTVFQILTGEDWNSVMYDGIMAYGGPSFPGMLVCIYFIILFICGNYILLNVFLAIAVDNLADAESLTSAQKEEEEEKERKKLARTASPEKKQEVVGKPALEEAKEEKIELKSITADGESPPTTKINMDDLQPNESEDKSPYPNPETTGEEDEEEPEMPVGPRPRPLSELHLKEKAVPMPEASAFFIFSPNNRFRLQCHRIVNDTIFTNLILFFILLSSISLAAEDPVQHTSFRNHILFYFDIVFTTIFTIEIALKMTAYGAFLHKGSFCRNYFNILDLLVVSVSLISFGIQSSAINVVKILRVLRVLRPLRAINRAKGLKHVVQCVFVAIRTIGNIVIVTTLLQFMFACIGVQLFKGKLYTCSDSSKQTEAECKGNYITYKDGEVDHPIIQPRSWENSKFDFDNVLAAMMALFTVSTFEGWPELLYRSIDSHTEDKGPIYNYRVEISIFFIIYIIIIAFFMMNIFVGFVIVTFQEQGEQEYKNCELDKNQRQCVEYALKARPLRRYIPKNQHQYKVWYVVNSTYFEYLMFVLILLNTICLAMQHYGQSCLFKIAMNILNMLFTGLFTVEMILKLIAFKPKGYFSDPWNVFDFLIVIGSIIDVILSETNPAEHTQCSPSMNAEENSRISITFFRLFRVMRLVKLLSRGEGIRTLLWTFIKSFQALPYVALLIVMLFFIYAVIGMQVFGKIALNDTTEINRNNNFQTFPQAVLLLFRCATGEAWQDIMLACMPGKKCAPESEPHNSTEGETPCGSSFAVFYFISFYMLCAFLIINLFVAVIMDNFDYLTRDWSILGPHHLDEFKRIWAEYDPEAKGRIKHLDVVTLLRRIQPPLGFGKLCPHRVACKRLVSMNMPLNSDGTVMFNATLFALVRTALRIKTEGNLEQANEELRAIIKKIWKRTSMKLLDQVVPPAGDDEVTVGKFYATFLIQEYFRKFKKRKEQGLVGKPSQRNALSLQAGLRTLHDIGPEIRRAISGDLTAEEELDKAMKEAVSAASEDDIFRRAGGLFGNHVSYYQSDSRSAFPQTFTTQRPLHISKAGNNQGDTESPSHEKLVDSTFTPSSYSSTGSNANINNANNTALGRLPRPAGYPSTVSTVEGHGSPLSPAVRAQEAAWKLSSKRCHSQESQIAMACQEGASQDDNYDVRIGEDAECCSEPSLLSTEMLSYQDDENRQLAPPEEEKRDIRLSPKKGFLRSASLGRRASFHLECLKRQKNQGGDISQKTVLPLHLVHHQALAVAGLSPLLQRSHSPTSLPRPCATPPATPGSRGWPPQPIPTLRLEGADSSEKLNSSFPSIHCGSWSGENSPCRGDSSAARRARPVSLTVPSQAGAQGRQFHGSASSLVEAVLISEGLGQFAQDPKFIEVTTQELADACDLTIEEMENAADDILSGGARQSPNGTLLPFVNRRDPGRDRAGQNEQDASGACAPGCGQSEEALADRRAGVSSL
- Sequence (P13806 27-960 partner limits assumed, other chains not shown): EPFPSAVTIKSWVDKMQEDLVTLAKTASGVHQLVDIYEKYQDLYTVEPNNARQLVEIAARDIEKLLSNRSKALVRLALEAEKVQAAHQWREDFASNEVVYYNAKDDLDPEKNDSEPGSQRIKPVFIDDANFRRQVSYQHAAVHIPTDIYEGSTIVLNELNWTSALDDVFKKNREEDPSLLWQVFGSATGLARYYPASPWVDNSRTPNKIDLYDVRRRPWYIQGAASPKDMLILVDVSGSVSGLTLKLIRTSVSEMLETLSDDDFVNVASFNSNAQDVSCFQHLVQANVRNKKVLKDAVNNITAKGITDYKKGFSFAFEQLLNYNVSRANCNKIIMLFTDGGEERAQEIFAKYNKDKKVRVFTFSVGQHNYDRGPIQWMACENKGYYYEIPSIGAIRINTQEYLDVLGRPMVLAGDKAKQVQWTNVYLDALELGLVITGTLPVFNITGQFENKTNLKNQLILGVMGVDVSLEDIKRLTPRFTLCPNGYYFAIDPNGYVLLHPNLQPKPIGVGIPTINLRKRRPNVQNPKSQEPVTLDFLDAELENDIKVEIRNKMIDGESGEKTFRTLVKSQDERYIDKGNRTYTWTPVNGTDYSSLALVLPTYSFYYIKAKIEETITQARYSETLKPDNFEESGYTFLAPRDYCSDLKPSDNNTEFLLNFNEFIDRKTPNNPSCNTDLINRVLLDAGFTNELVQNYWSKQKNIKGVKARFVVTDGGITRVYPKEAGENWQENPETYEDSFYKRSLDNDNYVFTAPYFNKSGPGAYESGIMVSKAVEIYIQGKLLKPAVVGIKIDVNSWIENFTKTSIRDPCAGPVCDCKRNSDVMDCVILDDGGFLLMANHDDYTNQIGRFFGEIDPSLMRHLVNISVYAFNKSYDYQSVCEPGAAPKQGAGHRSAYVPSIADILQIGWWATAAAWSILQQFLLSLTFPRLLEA
- Sequence (P13806 961-1106 partner limits assumed, other chains not shown): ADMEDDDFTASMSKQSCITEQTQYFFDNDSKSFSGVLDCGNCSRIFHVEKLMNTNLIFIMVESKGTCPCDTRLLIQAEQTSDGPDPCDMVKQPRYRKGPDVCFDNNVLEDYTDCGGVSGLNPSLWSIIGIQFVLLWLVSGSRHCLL
- METHOD_NOTES: Assay for inhibition of nitrendipine binding (calcium channel antagonist activity)
- CONDITION_SUMMARY: 3H-nitrendipine 0.05-0.50 nM, rabbit heart membranes, 90 minutes at 4° C.
- Experimental: Female, New Zealand white rabbits (1-2 kg) are sacrificed by cervical dislocation, and the heart is immediately removed, cleaned and chopped into small pieces. The tissue is homogenized in 5×times volume of 0.05M Hepes buffer, pH 7.4. The homogenate is centrifuged at 4000 g for 10 minutes, and the supernatant is re-centrifuged at 42,000×g for 90 minutes. […] After rinsing, the filters are dried and counted in a liquid scintillation counter. […]
Strictly below 2000 nM in IC50: fulfilled. Otherwise: not fulfilled.

INSERT INTO results (compound, assayed_target, class) VALUES
  ('CCOC(=O)C1=C(c2cccs2)NC2=C(C1c1cccc([N+](=O)[O-])c1)S(=O)(=O)CCCC2 (stereo not drawn)', 'calcium channel (3H-nitrendipine binding, heart membranes) (Oryctolagus cuniculus)', 'not fulfilled'),
  ('CN(CCOC(=O)C1=C(c2ccccc2)NC2=C(C1c1ccccc1Cl)S(=O)(=O)CCCC2)Cc1ccccc1 (stereo not drawn)', 'calcium channel (3H-nitrendipine binding, heart membranes) (Oryctolagus cuniculus)', 'fulfilled'),
  ('CN(CCOC(=O)C1=C(c2ccccc2)NC2=C(C1c1ccccc1Cl)S(=O)(=O)CCCC2)Cc1cccs1 (stereo not drawn)', 'calcium channel (3H-nitrendipine binding, heart membranes) (Oryctolagus cuniculus)', 'fulfilled'),
  ('CCOC(=O)C1=C(c2ccccc2)NC2=C(C1c1ccccc1Cl)S(=O)(=O)CCCC2 (stereo not drawn)', 'calcium channel (3H-nitrendipine binding, heart membranes) (Oryctolagus cuniculus)', 'fulfilled'),
  ('CCOC(=O)C1=C(c2cccs2)NC2=C(C1c1ccccc1Cl)S(=O)(=O)CCCC2 (stereo not drawn)', 'calcium channel (3H-nitrendipine binding, heart membranes) (Oryctolagus cuniculus)', 'not fulfilled'),
  ('CC1=C(C(=O)OCCN(C)Cc2ccsc2)C(c2ccccc2Cl)C2=C(CCCCS2(=O)=O)N1 (stereo not drawn)', 'calcium channel (3H-nitrendipine binding, heart membranes) (Oryctolagus cuniculus)', 'fulfilled'),
  ('CN(CCOC(=O)C1=C(c2ccccc2)NC2=C(C1c1cccc(Cl)c1)S(=O)(=O)CCCC2)Cc1ccccc1 (stereo not drawn)', 'calcium channel (3H-nitrendipine binding, heart membranes) (Oryctolagus cuniculus)', 'fulfilled'),
  ('CC1=C(C(=O)OCCN(C)Cc2cccs2)C(c2c(F)cccc2Cl)C2=C(CCCCS2(=O)=O)N1 (stereo not drawn)', 'calcium channel (3H-nitrendipine binding, heart membranes) (Oryctolagus cuniculus)', 'fulfilled'),
  ('CCOC(=O)C1=C(c2ccccc2)NC2=C(C1c1c(F)c(F)c(F)c(F)c1F)S(=O)(=O)CCCC2 (stereo not drawn)', 'calcium channel (3H-nitrendipine binding, heart membranes) (Oryctolagus cuniculus)', 'fulfilled'),
  ('CCOC(=O)C1=C(c2ccccc2)NC2=C(C1c1cccc(Cl)c1Cl)S(=O)(=O)CCCC2 (stereo not drawn)', 'calcium channel (3H-nitrendipine binding, heart membranes) (Oryctolagus cuniculus)', 'fulfilled');
